Data credit: patent US11180510B2

# targetUnderTest: BRD4(BD1) (Homo sapiens, UniProt O60885)
# measurementDescription: HTRF assay, BRD4(BD1)/histone peptide interaction
# Format: binding
# Parameters: made in house
# reportedConditions: HTRF; triplicates; NA = IC50 > maximal concentration of compound used
measuredParameter: IC50

# compound, targetUnderTest, recordedMeasurement
rows = [
    ("CCn1cnc2c1c(=O)[nH]c(=O)n2Cc1ccc(CNC(=O)[C@@H]2CCCNC2)cc1 [Compound 41c]", "BRD4(BD1) (Homo sapiens, UniProt O60885)", "> 50 µM"),
    ("CCn1cnc2c1c(=O)[nH]c(=O)n2Cc1ccc(CNC(=O)[C@H]2CC[C@H](CN)CC2)cc1 [Compound 41a]", "BRD4(BD1) (Homo sapiens, UniProt O60885)", "> 50 µM"),
    ("CCC[C@H](N)C(=O)NCc1ccc(Cn2c(=O)[nH]c(=O)c3c2ncn3CC)cc1 [Compound 42a]", "BRD4(BD1) (Homo sapiens, UniProt O60885)", "> 50 µM"),
    ("O=C1CCCc2cc(S(=O)(=O)NCC3CCC(C(=O)NCc4cccs4)CC3)ccc2N1 (centres unmarked) [Compound 5a]", "BRD4(BD1) (Homo sapiens, UniProt O60885)", "> 50 µM"),
    ("CCn1cnc2c1c(=O)[nH]c(=O)n2Cc1ccc(CNS(=O)(=O)c2ccc([N+](=O)[O-])cc2)cc1 [Compound 28a]", "BRD4(BD1) (Homo sapiens, UniProt O60885)", "1.3 µM"),
]
